Origin of measurements: ChEMBL document CHEMBL1132480

# experimentDescription: Equilibrium constant (K1) of the compound.
# Assay type: ADME

{"smilesRepr": "O=P(O)(O)O[C@@H]1[C@H](O)[C@H](O)[C@@H](OP(=O)(O)O)[C@H](OP(=O)(O)O)[C@H]1F", "Log K1": 8.76}
{"smilesRepr": "N[C@@H]1[C@@H](OP(=O)(O)O)[C@H](OP(=O)(O)O)[C@@H](O)[C@@H](O)[C@H]1OP(=O)(O)O", "Log K1": 10.69}
{"smilesRepr": "O=P(O)(O)O[C@@H]1[C@H](O)[C@H](O)[C@@H](OP(=O)(O)O)[C@H](OP(=O)(O)O)[C@H]1O", "Log K1": 7.85}
{"smilesRepr": "O=P(O)(O)O[C@@H]1[C@H](O)[C@H](O)[C@@H](OP(=O)(O)O)[C@H](OP(=O)(O)O)[C@@H]1O", "Log K1": 8.01}
{"smilesRepr": "O=P(O)(O)O[C@@H]1[C@@H](O)[C@@H](O)[C@@H](OP(=O)(O)O)C[C@H]1OP(=O)(O)O", "Log K1": 8.3}
